protocol_text: method code SF-AS, from DOI: 10.1021/jm00244a011, PMID: 808606
measurement_name: logP

# count of solved cases: 5
compound_structure_string=O=C(O)CCCN1C(=O)C=CC1=O measurement_name=logP val=0.4
compound_structure_string=CCOC(=O)CCCN1C(=O)C=CC1=O measurement_name=logP val=0.67
compound_structure_string=CCOC(=O)CCN1C(=O)C=CC1=O measurement_name=logP val=0.41
compound_structure_string=O=C(O)CCCCN1C(=O)C=CC1=O measurement_name=logP val=0.6
compound_structure_string=CCOC(=O)CCCCCN1C(=O)C=CC1=O measurement_name=logP val=1.5

A: CCOC(=O)CN1C(=O)C=CC1=O
B: O=C(O)CCCCCN1C(=O)C=CC1=O
C: O=C(O)CN1C(=O)C=CC1=O
D: O=C(O)CCCCCCCN1C(=O)C=CC1=O
E: O=C(O)CCN1C(=O)C=CC1=O
Reorder the items by logP, least to greatest. I would appreciate it if you listed the labels in the requested order.
C, E, A, B, D
(C: -0.14, E: 0.04, A: 0.49, B: 1.15, D: 1.99)
